pIC50: −log10 of the molar value.
What follows is a collection of pIC50 values obtained with Tyrosine-protein phosphatase non-receptor type 2 (Homo sapiens, UniProt P17706).
Sequence (P17706 whole entry): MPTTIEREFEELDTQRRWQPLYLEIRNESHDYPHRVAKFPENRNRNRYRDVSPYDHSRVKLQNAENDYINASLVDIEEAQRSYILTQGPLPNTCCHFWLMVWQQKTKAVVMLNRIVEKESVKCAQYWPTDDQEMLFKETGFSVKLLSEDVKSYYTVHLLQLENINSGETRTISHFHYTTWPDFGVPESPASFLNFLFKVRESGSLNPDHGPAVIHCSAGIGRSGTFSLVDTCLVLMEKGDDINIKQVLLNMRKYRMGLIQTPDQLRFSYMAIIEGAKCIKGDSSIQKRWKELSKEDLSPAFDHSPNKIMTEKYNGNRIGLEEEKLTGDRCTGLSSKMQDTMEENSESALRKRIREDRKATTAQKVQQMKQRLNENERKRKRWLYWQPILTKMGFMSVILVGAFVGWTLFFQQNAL

Previously resolved entries follow.
> print(dat)
                            compound.string  assay.value
1  CC(C)CCn1cc(-c2ccc(O)c(N3CC(=O)NS3(=O)=O)c2F)nn1       > 6.00
2  CC(C)CCCc1cc2c(F)c(N3CC(=O)NS3(=O)=O)c(O)cc2n(C)c1=O       > 6.00
3  CC(C)CCn1cnc(-c2ccc(O)c(N3CC(=O)NS3(=O)=O)c2F)c1       > 6.00
4  CC(C)CCc1ccc2cc(O)c(N3CC(=O)NS3(=O)=O)cc2n1       > 6.00

Qu. Give Tyrosine-protein phosphatase non-receptor type 2 (Homo sapiens, UniProt P17706) pIC50 for the following molecule: "CC(C)CCc1ccc2cc(O)c(N3CC(=O)NS3(=O)=O)c(F)c2n1"
Ans. > 6.00

Qu. Give Tyrosine-protein phosphatase non-receptor type 2 (Homo sapiens, UniProt P17706) pIC50 for the following molecule: "COc1ccc2cc(O)c(N3CC(=O)NS3(=O)=O)c(F)c2n1"
Ans. > 6.00

Qu. Give Tyrosine-protein phosphatase non-receptor type 2 (Homo sapiens, UniProt P17706) pIC50 for the following molecule: "O=C1CN(c2c(O)cc3c(c2F)C[C@H](NCCCC(F)F)CC3)S(=O)(=O)N1"
Ans. > 9.00

* * *

What follows is a collection of IC50 values obtained with UniProtKB P17706.

> print(dat)
                            compound.string  measured.endpoint  assay.value
1  CC(C)CCn1cnc2cc(O)c(N3CC(=O)NS3(=O)=O)c(F)c2c1=O               IC50   > 10000 nM
2  CC(C)CCn1ccc(-c2ccc(O)c(N3CC(=O)NS3(=O)=O)c2F)c1               IC50    < 1000 nM
3  CC(C)CCn1ccc(-c2ccc(O)c(N3CC(=O)NS3(=O)=O)c2F)n1               IC50    < 1000 nM

Qu. Report IC50, nothing else, for this compound: "CC(C)CCn1ccc2cc(O)c(N3CC(=O)NS3(=O)=O)c(F)c2c1=O"
Ans. > 1000 nM
